property measured: melting point

Here is how some compounds turned out for melting point.
{"columns": ["compound", "value reported"],
 "data": [
  ["CC(C)(O)c1ccc(CNC(=O)c2cccnc2Oc2cccc(F)c2)cc1", "106 to 108 °C"],
  ["CCOC(=O)CCc1cc(S(C)(=O)=O)cc(-c2nc(=O)c3ccc(Cl)cc3s2)n1", "240 °C"],
  ["Cc1cc2c3c(cc(C)c2[nH]c1=O)C(C)C(C)(CN=[N+]=[N-])O3 (stereo not given)", "189 to 192 °C"],
  ["O=c1ccc2c(O)cc(O)cc2[nH]1", "> 300 °C"]
]}

Now look at this one.
Entry CC1Cc2cc3c(cc2C(c2ccc([N+](=O)[O-])cc2)=NN1C(=O)C(C)(C)C)OCO3 (stereo not given) : reported melting point = ? 164 to 166 °C

###

Would you mind telling me the reported melting point of each entry?

Dear reader, for each entry below, please note its melting point.
1. CN(C)CCNc1nc(Nc2cccc(NS(C)(=O)=O)c2)nc2[nH]cnc12
2. COc1cc(C(C)C)c2c(c1)S(=O)(=O)N(COc1cc(C(F)(F)F)nn1-c1ncccn1)C2=O
3. CCCCNc1c(N)cc(C(=O)O)cc1S(N)(=O)=O
4. COC(=O)CCC(=O)OC1CC(C)(C)N(O)C(C)(C)C1
5. CCC(Oc1ccccc1C(C)(C)C)C(=O)OC1CC(O)C=C2C=CC(C)C(CCC3CC(O)CC(=O)O3)C21 (mixture of isomers)
6. CC(C)C[C@@H](NC(=O)c1cnc(N2CCC(N3C(=O)OCc4ccccc43)CC2)c(Cl)c1)C(N)=O

1. 191 to 195 °C
2. 133 to 134 °C
3. 211 to 212 °C
4. 76 °C
5. 176 to 178 °C
6. 139 to 142 °C

Dear reader, for each entry below, please note its melting point.
1. CN(C)c1cc[nH]c(=O)c1[N+](=O)[O-]
2. COc1ccc(C(=O)Oc2ccc(C(=O)O)c(O)c2)cc1C12CC3CC(CC(C3)C1)C2
3. O=C(Nc1ccccc1Oc1ccc(Cl)cc1Cl)C1CCN(C(=O)c2ccccc2)CC1
4. CC(=O)c1cncc(OC2SCC(O)C(O)C2O)c1 (stereo not given)
5. CCOCn1c(Oc2cc(C)cc(C)c2)c(CC)c(=O)[nH]c1=O

["208 to 209 °C", "243 to 244 °C", "176 to 177 °C", "209 °C", "139 to 140 °C"]

Dear reader, for each entry below, please note its melting point.
1. Cc1ccc(-c2ccccc2)c(O)c1-c1ccccc1
2. Cc1ccc2c(=O)c3c(oc2c1)CCC(C#N)C3 (stereo not given)
3. Cc1ccccc1-c1nn(C(C)(C)C(=O)N(C)C)cc1Cl
4. CSc1ccc(C2OC(=O)NC2O)cc1 (stereo not given)
5. CCN(CC)CCNC(=O)c1cc(Cl)c(N)cc1OC(C)C(C)=NO (stereo not given)

1. 279 to 280 °C
2. 176 to 178 °C
3. 134 to 136 °C
4. 130 to 131 °C
5. 113 to 115 °C

Dear reader, for each entry below, please note its melting point.
1. CCC(=O)C(Cc1ccc(O)cc1)C(=O)CC
2. NCC1(O)c2ccccc2C=Cc2ccccc21
3. CS(=O)(=O)Nc1ccc(NCC2CCNCC2)c(C(=O)Nc2ccc(Cl)cn2)c1
4. CCCCNC(=O)Nc1ccc(N(CC)CC)cc1C(=O)NCC1CCN(C(c2ccccc2)c2ccccc2)CC1

1: 44 to 54 °C; 2: 117 to 120 °C; 3: 223 to 226 °C; 4: 158 to 160 °C
